These entries and their values trace back to ChEMBL document CHEMBL3098127.

species: Rattus norvegicus; settings: Cerebral cortex
Description: Displacement of [3H]BTX-B from neuronal voltage-gated sodium channel in rat cerebral cortex synaptoneurosomes after 60 mins by scintillation counting
logIC50 strictly under 1 means true; at 1 or over means false.

Query :: Please determine if CCOC(=O)C1=C(C)NC(C)=C(C(=O)OC)C1c1cccc(Cl)c1Cl (configuration not stated) is below 1 in terms of logIC50.
Result :: false

Query :: Input CCCCCCCC1(c2ccccc2)OC(=O)NC1=O (configuration not stated) ; condition: logIC50 strictly below 1. Does it hold?
Result :: false

---

species: Rattus norvegicus; details: Cerebral cortex
I'd be grateful if you could share measured logIC50 for these entries.
Numbers only.

Examples with answers:
Query :: Suppose we examine the compound CC1CCCCN1CCCOC(=O)c1ccccc1 (configuration not stated) ; what logIC50 value has been reported?
Result :: 1.11

Query :: What measured logIC50 goes with COc1ccc(CCN(C)CCCC(C#N)(c2cc(OC)c(OC)c(OC)c2)C(C)C)cc1OC (configuration not stated) ?
Result :: 0.56

Query :: Entry CCCCCC1(c2ccccc2)NC(=O)N(CN2CCN(C(c3ccccc3)c3ccccc3)CC2)C1=O (configuration not stated) has what logIC50?
Result :: 0.11

Query :: I'd like to know its logIC50. The compound in question is CC(Cc1ccccc1)NCCC(c1ccccc1)c1ccccc1 (configuration not stated)
Result :: -0.52

Query :: Value lookup for logIC50; key = "OCCN1CCN(CCCN2c3ccccc3Sc3ccc(C(F)(F)F)cc32)CC1"
Result :: 0.57

Can you give me logIC50 for all of these, one by one?
1. CCC(O)(C(=O)NCCCc1ccccc1)c1ccccc1 (configuration not stated)
2. CCCCCCCC(O)(C(N)=O)c1ccccc1 (configuration not stated)
3. CCN(CC)CCOC(=O)c1ccc(N)cc1
4. CCCCN(CCCC)CCCOC(=O)c1ccc(N)cc1

Result ::
1.54
0.95
2.04
0.43

Return reported logIC50 values for all items listed beneath this line.
1. CCCCC1(c2ccccc2)NC(=O)N(C)C1=O (configuration not stated)
2. Cc1ccc2c(S(=O)(=O)NCCCCCCN)cccc2c1
3. Cc1cccc(C)c1NC(=O)C1CCCCN1C (configuration not stated)

Result ::
1. 2.45
2. 1.08
3. 2.28

---

organism: Rattus norvegicus; conditions: Cerebral cortex
Each record is given Y if its reported logIC50 is strictly below 0.8. Records at or above 0.8 are given N.

Example entries begin here.
Query :: Item CCC(OCCCc1ccccc1)(C(=O)CCCCc1ccccc1)c1ccccc1 (stereo not given) : logIC50 beneath 0.8, strictly?
Result :: Y

Query :: Consider CCCCCC1(c2ccccc2)NC(=O)N(S(C)(=O)=O)C1=O (stereo not given) . Does its logIC50 lie strictly below 0.8?
Result :: N

Query :: Please let me know if "OC(CCCN1CCCCC1)(c1ccccc1)c1ccccc1" shows logIC50 below 0.8.
Result :: Y

Query :: Lab note: confirm whether the reported logIC50 for this molecule is below 0.8, equality not counting. molecule: O=C1NC(=O)C2(CCc3ccccc32)N1 (stereo not given)
Result :: N

Query :: Here's an entry: "CN(C)C(=O)C(CCN1CCC(O)(c2ccc(Cl)c(C(F)(F)F)c2)CC1)(c1ccccc1)c1ccccc1" . Is its logIC50 below 0.8?
Result :: Y

Continuing:
Query :: Item "CCCCOc1ccc(OCCCN2CCOCC2)cc1" : logIC50 beneath 0.8, strictly?
Result :: N

Query :: Is logIC50 of CCCC1(c2ccccc2)NC(=O)N(S(C)(=O)=O)C1=O (stereo not given) strictly below 0.8?
Result :: N

Query :: Below 0.8 on logIC50? Entry O=C1NC(=O)C2(CCCCCc3ccccc32)N1 (stereo not given)
Result :: N

Query :: Lab note: logIC50 threshold 0.8. Does this molecule come in strictly under it? "CCN(CC)CCOC(=O)C1(C2CCCCC2)CCCCC1"
Result :: Y

Query :: hey, is logIC50 for "COc1cc(C(=O)OCCCN2CCCN(CCCOC(=O)c3cc(OC)c(OC)c(OC)c3)CC2)cc(OC)c1OC" lower than 0.8 or not?
Result :: Y

Query :: Below 0.8 on logIC50? Entry CCC(O)(C(=O)NCCc1ccccc1)c1ccccc1 (stereo not given)
Result :: N

Query :: API: query returns whether the molecule falls strictly under 0.8 in logIC50. Query: CCCC1(c2ccccc2)NC(=O)NC1=O (stereo not given)
Result :: N

Query :: Lab log: compare recorded logIC50 with 0.8; is it strictly lower for CCC1(c2ccccc2)NC(=O)N(CN2CCN(C(c3ccccc3)c3ccccc3)CC2)C1=O (stereo not given) ?
Result :: Y

Query :: Is the reported logIC50 for "CCCNC(C)(C)COC(=O)c1ccccc1" strictly below 0.8?
Result :: N

Query :: Given O=C1NC(=O)C2(CCCc3ccccc32)N1 (stereo not given) , is recorded logIC50 strictly lower than 0.8?
Result :: N

Query :: hey, is logIC50 for "O=C1NC(=O)C(c2ccccc2)(c2ccccc2)N1" lower than 0.8 or not?
Result :: N

Query :: logIC50 under 0.8? Item: CCCCCC(O)(C(=O)NCCc1ccccc1)c1ccccc1 (stereo not given)
Result :: Y

Query :: Identify whether the molecule "CCN(CC)CC(=O)Nc1c(C)cccc1C" records logIC50 below 0.8.
Result :: N

Query :: Please indicate whether the reported logIC50 of CCCCCC1(c2ccccc2)NC(=O)N(Cc2ccccc2)C1=O (stereo not given) is strictly below 0.8.
Result :: N

Query :: Lab log: compare recorded logIC50 with 0.8; is it strictly lower for CCCCCCCCCC1(c2ccccc2)NC(=O)N(S(C)(=O)=O)C1=O (stereo not given) ?
Result :: N

Query :: Please indicate whether the reported logIC50 of CCC1(c2ccccc2)NC(=O)N(S(=O)(=O)c2ccc(C)cc2)C1=O (stereo not given) is strictly below 0.8.
Result :: N

Query :: Does this molecule meet the criterion logIC50 < 0.8? "O=C(CCCN1CCC(O)(c2ccc(Cl)cc2)CC1)c1ccc(F)cc1"
Result :: Y

Query :: Strictly below 0.8: is that where logIC50 of CCCCCC1(c2ccccc2)OC(=O)NC1=O (stereo not given) sits?
Result :: N

Query :: Record "CN(C)C(=O)C(CCN1CCC(O)(c2ccc(Cl)cc2)CC1)(c1ccccc1)c1ccccc1" : is its logIC50 strictly below 0.8?
Result :: Y
